Just for reference, PubChem BioAssay (NCI) is where these values come from.

test system: UO-31 renal; test: NCI-60 one-dose screen, 48 h (100 = growth as untreated, 0 = no growth, -100 = all killed); conditions: 10 µM unless noted
The panel holds about 83,000 compounds, 20% with a hit somewhere; the sample as a whole holds those more often.
Could you mark each record Satisfied if its growth falls strictly under 80%, and Not satisfied if it equals or exceeds it?

MOLECULE: COc1ccc(-c2nc(C#N)c(N3CCC(S(=O)(=O)N4CCOCC4)CC3)o2)cc1
TARGET_UNDER_TEST: UO-31 renal
LABEL: Not satisfied

Q: Please check: growth for COC(=O)CCCNCCCn1ccc2cc(NCc3cccc(-c4ccccc4)c3C)ccc21 , strictly under 80% or not?
A: Satisfied

###

tested on: KM12 colon; assay: NCI-60 one-dose screen, 48 h (100 = growth as untreated, 0 = no growth, -100 = all killed); details: 10 µM unless noted
The panel holds about 83,000 compounds, 20% with a hit somewhere; the sample as a whole holds those more often. Activity calls are given as the source filed them. Rule for the calls: active = growth percent below 10; inactive = the rest.
OUTCOME_MEASURE: growth

Example results:
MOLECULE: CCCCN1C(=O)/C(=c2\sc3n(c2=O)C2C(NN=3)N(CC)C(=O)N2CC)c2cccc(C)c21 (stereo not given)
OUTCOME_MEASURE: growth
EXPERIMENTAL_VALUE: 33.3% (inactive)

MOLECULE: CCOC(=O)c1cccc(NC2=C(Cl)C(=O)c3nc(C)ccc3C2=O)c1
OUTCOME_MEASURE: growth
EXPERIMENTAL_VALUE: 105% (inactive)

MOLECULE: COc1cc2c3c(cc4c5c(ccc4c3c1OC)OCO5)N(CCN(C)C)C2=O
OUTCOME_MEASURE: growth
EXPERIMENTAL_VALUE: 8.95% (active)

MOLECULE: O=C1/C(=C/C=C/c2ccco2)SC(=S)N1Cc1ccccc1
OUTCOME_MEASURE: growth
EXPERIMENTAL_VALUE: 78.6% (inactive)

MOLECULE: N#Cc1c(-c2cccs2)cc(-c2cnccn2)nc1SCC(=O)N/N=C/c1ccccc1
OUTCOME_MEASURE: growth
EXPERIMENTAL_VALUE: 33.2% (inactive)

MOLECULE: O=C1[C@@H]2Cc3c([nH]c4ccccc34)[C@@H](c3ccc(Cl)cc3)N2C(=O)CN1C1CCN(Cc2c(F)cccc2F)CC1
OUTCOME_MEASURE: growth
EXPERIMENTAL_VALUE: 35.1% (inactive)

For each of the molecules below, note its growth.
1. CC/C(=C(/c1ccc(Cl)cc1)c1ccc(OCCN)cc1)c1ccccc1
2. CC1(C)CC[C@]23CC[C@]4(C)[C@H](CC[C@@H]5[C@@]6(C)CC[C@H](N)C(C)(C)[C@@H]6CC[C@]54C)[C@H]2[C@H]1OC3

A:
1. 84.7% (inactive)
2. 18% (inactive)

###

test system: NCI-H322M lung; experiment: NCI-60 one-dose screen, 48 h (100 = growth as untreated, 0 = no growth, -100 = all killed); conditions: 10 µM unless noted
About 83,000 compounds went through this panel and 20% of them were active in at least one assay; those are over-represented in the sample as a whole.
OUTCOME_MEASURE: growth (%)
Give bare numbers, in %.

MOLECULE: CC(=O)c1c([Si](C)(C)C)c2cc(C#N)ccn2c1C(=O)c1ccc(Br)cc1
growth [%]: 85.3
--
MOLECULE: N#Cc1c(-c2ccc(Br)cc2)cc(-c2c[nH]c3ccccc23)nc1N
growth [%]: 67.6
--
MOLECULE: CS(=O)(=O)c1ccc(/C(=N/N=C(N)N)c2ccc(Cl)cc2)cc1
growth [%]: 94.9
--
MOLECULE: NC(=S)n1c(=O)n(-c2cccc(C(F)(F)F)c2)c(=O)c2cc(-c3ccc(F)cc3F)ccc21
growth [%]: 6.11
--
MOLECULE: O=C1C(N2CCN(c3ccccc3)CC2)=C(Cl)C(=O)c2ncccc21
growth [%]: 95.2

For each of the molecules below, note its growth.
1. CSc1ccc(/C(=N/N=C(N)N)c2ccc(F)cc2)cc1
2. O=C1c2ccccc2C23C(=C(c4cncnc4)c4ccccc42)CCCN13 (centres undefined)
3. NC(N)=NS(=O)(=O)c1ccc(N=Nc2c(N)nn(-c3ccc([N+](=O)[O-])cc3[N+](=O)[O-])c2N)cc1
4. C#Cc1cc(C(=O)Nc2ccc(CNCCN3CCOCC3)c(C(F)(F)F)c2)ccc1C

A:
1. 67.5
2. 107
3. 92.9
4. 98.3
